Molecular target: cannabinoid receptor (Rattus norvegicus)
Construct: Brain tissue from rats was homogenized; from tissue; host or cells: rat brain, washed homogenate membranes
Sequence (P20272 whole entry): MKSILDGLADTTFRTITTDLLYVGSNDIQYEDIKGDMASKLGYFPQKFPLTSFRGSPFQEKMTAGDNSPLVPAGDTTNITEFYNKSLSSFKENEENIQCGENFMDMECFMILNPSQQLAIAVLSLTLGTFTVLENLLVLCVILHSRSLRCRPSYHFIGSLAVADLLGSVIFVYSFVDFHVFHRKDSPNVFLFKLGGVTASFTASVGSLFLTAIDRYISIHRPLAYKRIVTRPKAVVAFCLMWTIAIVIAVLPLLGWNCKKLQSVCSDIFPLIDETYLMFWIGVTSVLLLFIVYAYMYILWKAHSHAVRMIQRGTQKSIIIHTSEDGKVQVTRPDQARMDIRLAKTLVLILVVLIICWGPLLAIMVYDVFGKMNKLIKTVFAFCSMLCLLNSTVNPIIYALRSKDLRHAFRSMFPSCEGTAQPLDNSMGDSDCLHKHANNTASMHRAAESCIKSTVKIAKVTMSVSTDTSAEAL
Assay: cannabinoid receptor binding test (CR), predictive of antiglaucoma activity
Conditions: rat brain membranes, pH 7.0, 30° C., 90 min; read-out: CR IC50
Recorded pIC50 values for a group of compounds are listed next.
To interpret pIC50, take it as minus log10 of a concentration measured in moles per litre.

Sample records with pIC50:
[[record]]
chem_smiles = "COc1ccc(C=C2C=C(CCN3CCOCC3)c3ccccc32)c2ccccc12"
data_value = 9.05

[[record]]
chem_smiles = "COc1ccc(C=C2C=C(CCCN3CCOCC3)c3ccccc32)c2ccccc12"
data_value = 7.92

[[record]]
chem_smiles = "CC1=C(CCN2CCOCC2)c2ccccc2C1=Cc1cccc2ccccc12"
data_value = 8.00


Ask | Requested field: pIC50. Item: COc1ccc(C=C2C=C(CCN3CCOCC3)c3ccccc32)cc1OC
Reply | 7.55

Ask | Requested field: pIC50. Item: C(=C1C=C(CCN2CCOCC2)c2ccccc21)c1cccc2ccccc12
Reply | 9.00
